Where a name gives a salt, the structure may show the parent alone.
test readout: melting point

Worked cases, answers included:
[[record]]
molecule = "Nc1cccc(-c2ccc(CCN3CCC(c4ccccc4)C3)cc2)n1 (stereo not shown) (as salt: hydrochloride)"
test_readout = "melting point"
result = "100 °C (dec.)"

[[record]]
molecule = "Nc1cccc(-c2ccc(CCN3CCN(c4nnnn4-c4ccccc4)CC3)cc2)n1"
test_readout = "melting point"
result = "212 to 214 °C"

[[record]]
molecule = "Nc1cccc(-c2ccc(CCN3C4CCC3CC(NC(=O)Cc3ccc(F)cc3)C4)cc2)n1 (stereo not shown) (as salt: hydrochloride)"
test_readout = "melting point"
result = "160 °C (dec.)"


Query: Consider the molecule CN(C)C1CCN(CCc2ccc(-c3cccc(N)n3)cc2)CC1 and give its measured melting point.
Reply: 174 to 176 °C

====

Documented melting point across a set of compounds
Where a name gives a salt, the structure may show the parent alone.

The cases that follow already have their melting point on record.
[[record]]
compound = "CN1CCN(CCc2ccc(-c3cccc(N)n3)cc2)CC1 (as salt: hydrochloride)"
test_readout = "melting point"
result = "170 °C (dec.)"

[[record]]
compound = "Nc1cccc(-c2ccc(CCN3CCC(N)CC3)cc2)n1 (as salt: trifluoroacetate)"
test_readout = "melting point"
result = "190 to 195 °C"

[[record]]
compound = "Nc1cccc(-c2ccc(CCN3CCN(CC(O)c4ccccc4)CC3)cc2)n1 (stereo not drawn) (as salt: hydrochloride)"
test_readout = "melting point"
result = "235 °C (dec.)"

[[record]]
compound = "Nc1cccc(-c2ccc(CCN3CCN(C(=O)Cc4ccccc4)CC3)cc2)n1"
test_readout = "melting point"
result = "135 to 137 °C"

[[record]]
compound = "Nc1cccc(-c2ccc(CCN3CC4CCC(C3)C4N)cc2)n1 (stereo not drawn) (as salt: hydrochloride)"
test_readout = "melting point"
result = "235 °C (dec.)"


Query: Endpoint output: melting point of Nc1cccc(-c2ccc(CCNC34CC5CC(CC(C5)C3)C4)cc2)n1 (as salt: hydrochloride) . Value?
Reply: 200 to 220 °C (dec.)

Query: Can you check Nc1cccc(-c2ccc(CCNC3CC4CCC(C3)N4)cc2)n1 (stereo not drawn) (as salt: hydrochloride) next?
Reply: 170 °C (dec.)

Query: Also Cc1ccc(NC(=O)N2CCN(CCc3ccc(-c4cccc(N)n4)cc3)CC2)cc1C ?
Reply: 122 to 125 °C

Query: Now give it for Nc1cccc(-c2ccc(CCN3CCN(C(=O)Cc4ccc(Cl)cc4)CC3)cc2)n1 (as salt: hydrochloride) too.
Reply: 205 °C (dec.)

Query: Same read-out for Nc1cccc(-c2ccc(CCN3C4CCC3CC(N)C4)cc2)n1 (stereo not drawn) (as salt: hydrochloride) ?
Reply: > 300 °C

Query: Would you mind doing Cc1cc(N)nc(-c2ccc(CCN3CCN(CCc4ccccc4)CC3)cc2)c1 (as salt: hydrochloride) as well?
Reply: 242 to 250 °C

Query: Would you kindly repeat that for Nc1cccc(-c2ccc(CCN3CC4C(C3)C4NC(=O)Nc3ccccc3)cc2)n1 (stereo not drawn) ?
Reply: 192 to 194 °C

Query: Do the same for CC(Cc1ccccc1)N1CCN(CCc2ccc(-c3cccc(N)n3)cc2)CC1 (stereo not drawn) (as salt: hydrochloride) please
Reply: 252 to 256 °C

Query: Moving on to Nc1cccc(-c2ccc(CCN3CCN(C(=O)NC4CCCCC4)CC3)cc2)n1
Reply: 180 to 182 °C

Query: Then this compound: Nc1cccc(-c2ccc(CCN3CC4C(C3)C4NC(=O)Cc3ccc(F)cc3)cc2)n1 (stereo not drawn)
Reply: 161 to 163 °C

Query: Please answer likewise for Nc1cccc(-c2ccc(CCN3CCC4(CC3)NC(=O)N(CCc3ccccc3)C4=O)cc2)n1 (as salt: hydrochloride)
Reply: 176 to 180 °C

Query: Would you mind doing Nc1cccc(-c2ccc(CCN3C4CCC3CC(NC(=O)c3ccccc3)C4)cc2)n1 (stereo not drawn) (as salt: hydrochloride) as well?
Reply: 211 °C (dec.)

Query: What would you report for CC(=O)N(CCc1ccc(-c2cccc(N)n2)cc1)C1CCN(Cc2ccccc2)CC1 (as salt: hydrochloride) ?
Reply: 60 to 70 °C (dec.)

Query: Next compound up: Nc1cccc(-c2ccc(CCN3CCN(C4CCc5ccccc5C4)CC3)cc2)n1 (stereo not drawn) (as salt: hydrochloride)
Reply: > 220 °C

Query: Field entry: Nc1cccc(-c2ccc(CCN3CCC(NC(=O)Nc4ccccc4)C3)cc2)n1 (stereo not drawn) (as salt: hydrochloride)
Reply: 130 °C (dec.)

Query: Also check CC(C)NC(=O)CN1CCN(CCc2ccc(-c3cccc(N)n3)cc2)CC1
Reply: 163 to 165 °C
